- System: Rattus norvegicus
- measurement_notes: Antisecretory activity against histamine stimulated gastric acid secretion in Shay rats by peroral administration of 30 mg /kg was determined
- Type: functional
- protocol_conditions: Stomach, po
measurement_type: inhibition in vivo at 30 mg/kg (%)
Answers are plain numbers, in %.

# count of solved cases: 6
compound	measurement_type	obs_value
Cc1cccc(C2(C(=N)S)CCCS2)n1 (stereo not given)	inhibition in vivo at 30 mg/kg	71
C/N=C(\S)C1(c2cccnc2)CCCS1 (stereo not given)	inhibition in vivo at 30 mg/kg	49
CCCCCCC/N=C(\S)C1(c2ccccn2)CCCS1 (stereo not given)	inhibition in vivo at 30 mg/kg	0
S=C(NCc1ccccc1)C1(c2ccccn2)CCCS1 (stereo not given)	inhibition in vivo at 30 mg/kg	58
C/N=C(\S)C1(c2cnccn2)CCCS1 (stereo not given)	inhibition in vivo at 30 mg/kg	38
C/N=C(\S)C1(c2ccncc2)CCCS1 (stereo not given)	inhibition in vivo at 30 mg/kg	53

Below are 4 compounds. Give each one its inhibition in vivo at 30 mg/kg.
1. S=C(N1CCOCC1)C1(c2ccccn2)CCCS1 (stereo not given)
2. CN(C)C(=S)C1(c2ccccn2)CCCS1 (stereo not given)
3. CCCCc1ccnc(C2(/C(S)=N/C)CCCS2)c1 (stereo not given)
4. CCCCCCCCCCCC/N=C(\S)C1(c2ccccn2)CCCS1 (stereo not given)

1: 54; 2: 74; 3: 78; 4: 0
